Each entry below lists one item and its recorded minimal effective concentration value.
- System: Aspergillus fumigatus MYA3626
- ASSAY NOTES: In vitro antifungal assay (Example IX), microdilution broth, MEC
- Format: cell-based
- SETTINGS: minimum effective concentration (shortening of hyphae), 35° C., 40-48 h, RPMI1640
OUTCOME MEASURE: minimal effective concentration

> print(dat)
                                   compound                  outcome.measure             result
1  Nc1ncccc1-c1cc(Cc2ccc(COC3CCCCC3)cc2)no1 [compound 23]  minimal effective concentration     0.1 to 1 µg/mL
2  Nc1ncccc1-c1cc(Cc2ccc(Nc3cccc(F)c3F)nc2)no1 [compound 72]  minimal effective concentration     0.1 to 1 µg/mL
3  Nc1ncccc1-c1cc(Cc2ccc(Oc3cccc(Cl)c3)nc2)no1 [Example 161]  minimal effective concentration  0.01 to 0.1 µg/mL
4  Nc1ncccc1-c1cc(Cc2ccc(OCc3cnc4ccccc4n3)cc2)no1 [compound 30]  minimal effective concentration          > 1 µg/mL
5  Nc1ncccc1-c1cc(Cc2ccc(Oc3ccccc3F)nc2)no1 [compound 131]  minimal effective concentration  0.01 to 0.1 µg/mL

---

Notes on MIC obtained with Cryptococcus neoformans H99.
OUTCOME MEASURE: MIC

> print(dat)
                                    molecule  outcome.measure             result
 1  Nc1ncccc1-c1cc(Cc2cnc(Oc3cccc(F)c3)c(F)c2)no1              MIC     0.1 to 1 µg/mL
 2  Nc1ncccc1-c1cc(Cc2ccc(OCc3ccc(F)cn3)nc2)no1              MIC     0.1 to 1 µg/mL
 3  Nc1ncccc1-c1cc(Cc2cnc(SCc3ccccc3)nc2)no1              MIC          > 1 µg/mL
 4    Nc1ncccc1-c1cc(Cc2ccc(Cn3cnnc3)cc2)no1              MIC          > 1 µg/mL
 5  Nc1ncccc1-c1cc(Cc2ccc(Cc3cn[nH]c3)cc2)no1              MIC     0.1 to 1 µg/mL
 6   Nc1ncccc1-c1cc(Cc2ccc(OCc3ncco3)nc2)no1              MIC     0.1 to 1 µg/mL
 7  Nc1ncccc1-c1cc(Cc2cnc(Oc3cc(F)cc(F)c3)nc2)no1              MIC          > 1 µg/mL
 8  Nc1ncccc1-c1cc(Cc2ccc(Oc3cc(F)cc(F)n3)cc2)no1              MIC  0.01 to 0.1 µg/mL
 9   Nc1ncccc1-c1cc(Cc2ccc(-c3ccccn3)cc2)no1              MIC     0.1 to 1 µg/mL
10  Nc1ncccc1-c1cc(Cc2ccc(NCc3ccccc3F)nc2)no1              MIC  0.01 to 0.1 µg/mL
11  Nc1ncccc1-c1cc(Cc2ccc(Cc3ccnc(F)c3F)cc2)no1              MIC  0.01 to 0.1 µg/mL
12    Nc1ncccc1-c1cc(Cc2ccc(Cn3cccn3)cc2)no1              MIC     0.1 to 1 µg/mL
13  Nc1ncccc1-c1cc(Cc2ccc(Nc3cc(F)ccc3F)nc2)no1              MIC     0.1 to 1 µg/mL
14      N#CCCOc1ccc(Cc2cc(-c3cccnc3N)on2)cn1              MIC          > 1 µg/mL
15  Nc1ncccc1-c1cc(Cc2ccc(/C=C/c3cccc(F)c3)cc2)no1              MIC          > 1 µg/mL
16  Nc1ncccc1-c1cc(Cc2cnc(OCc3cccc(F)c3)c(F)c2)no1              MIC     0.1 to 1 µg/mL
17   Nc1ncccc1-c1cc(Cc2ccc(Oc3ccccc3)nc2)no1              MIC  0.01 to 0.1 µg/mL
18  Nc1ncccc1-c1cc(Cc2ccc(Oc3ncccc3F)cc2)no1              MIC       ≤ 0.01 µg/mL
19   Nc1ncccc1-c1cc(Cc2ccc(OCc3cccs3)nc2)no1              MIC  0.01 to 0.1 µg/mL
20  Nc1ncccc1-c1cc(Cc2ccc(COc3ccccc3F)cc2)no1              MIC     0.1 to 1 µg/mL
21  Nc1ncccc1-c1cc(Cc2ccc(COc3cccnc3)cc2)no1              MIC     0.1 to 1 µg/mL
22  Nc1ncccc1-c1cc(Cc2ccc(OCc3ccc(Cl)s3)nc2)no1              MIC  0.01 to 0.1 µg/mL
23   Nc1ncccc1-c1cc(Cc2ccc(Nc3ccccc3)cc2)no1              MIC  0.01 to 0.1 µg/mL
24    Nc1ncccc1-c1cc(Cc2ccc(Cn3cncn3)cc2)no1              MIC          > 1 µg/mL
25  Nc1ncccc1-c1cc(Cc2ccc(OCc3cccc(Cl)n3)nc2)no1              MIC  0.01 to 0.1 µg/mL
26  Nc1ncccc1-c1cc(Cc2ccc(OCCc3ccccn3)nc2)no1              MIC     0.1 to 1 µg/mL
27  Nc1ncccc1-c1cc(Cc2ccc(OCc3cncc(F)c3)cc2)no1              MIC     0.1 to 1 µg/mL
28  Nc1ncccc1-c1cc(Cc2ccc(CNc3cccc(F)c3F)cc2)no1              MIC     0.1 to 1 µg/mL
29  Nc1ncccc1-c1cc(Cc2cnc(Oc3ccccc3F)c(F)c2)no1              MIC     0.1 to 1 µg/mL
30  Nc1ncccc1-c1cc(Cc2ccc(C(O)c3ccccc3)cc2)no1 (centres unmarked)              MIC     0.1 to 1 µg/mL
31  Nc1ncccc1-c1cc(Cc2cnc(Oc3ccccc3)c(F)c2)no1              MIC     0.1 to 1 µg/mL
32   Nc1ncccc1-c1cc(Cc2ccc(OCc3ccco3)nc2)no1              MIC          > 1 µg/mL
33  COc1c(F)cc(F)cc1NCc1ccc(Cc2cc(-c3cccnc3N)on2)cc1              MIC     0.1 to 1 µg/mL
34  Nc1ncccc1-c1cc(Cc2ccc(OCc3ccccn3)nc2)no1              MIC  0.01 to 0.1 µg/mL
35    Nc1ncccc1-c1cc(Cc2ccc(Cc3ccco3)cc2)no1              MIC  0.01 to 0.1 µg/mL
36  Nc1ncccc1-c1cc(Cc2ccc(Oc3cccc(F)c3)nc2)no1              MIC       ≤ 0.01 µg/mL
37  Nc1ncccc1-c1cc(Cc2ccc(OCc3ncccn3)nc2)no1              MIC     0.1 to 1 µg/mL
38   Nc1ncccc1-c1cc(Cc2ccc(OCc3cscn3)nc2)no1              MIC  0.01 to 0.1 µg/mL

---

Notes on MIC obtained with Cryptococcus gattii.
OUTCOME MEASURE: MIC

> print(dat)
                                    compound             result
 1  Nc1ncccc1-c1cc(Cc2ccc(CNc3ccnc(F)c3)cc2)no1 [compound 70]     0.1 to 1 µg/mL
 2  Nc1ncccc1-c1cc(Cc2ccc(Cc3cc(F)cc(F)c3)cc2)no1 [compound 212]  0.01 to 0.1 µg/mL
 3  COc1cc(COc2ccc(Cc3cc(-c4cccnc4N)on3)cn2)ccn1 [Example 165]  0.01 to 0.1 µg/mL
 4  Nc1ncccc1-c1cc(Cc2ccc(OCc3ccnc(Cl)c3)nc2)no1 [compound 83]  0.01 to 0.1 µg/mL
 5  Nc1ncccc1-c1cc(Cc2ccc(OCCCc3ccccc3)nc2)no1 [compound 213]     0.1 to 1 µg/mL
 6  Nc1ncccc1-c1cc(Cc2ccc(COc3cc(F)cc(F)c3F)cc2)no1 [compound 190]     0.1 to 1 µg/mL
 7  Nc1ncccc1-c1cc(Cc2ccc(OCc3nccs3)cc2)no1 [compound 112]  0.01 to 0.1 µg/mL
 8  Nc1ncccc1-c1cc(Cc2ccc(-c3ccc(F)cc3)nc2)no1 [compound 205]          > 1 µg/mL
 9  Nc1ncccc1-c1cc(Cc2ccc(Oc3ncccn3)cc2)no1 [compound 243]     0.1 to 1 µg/mL
10  Nc1ncccc1-c1cc(Cc2cnc(OCc3cccc(F)c3)nc2)no1 [compound 249]          > 1 µg/mL
11  Nc1ncccc1-c1cc(Cc2ccc(OCc3cc(Cl)nc(Cl)c3)nc2)no1 [compound 219]          > 1 µg/mL
12  Nc1ncccc1-c1cc(Cc2cnc(Nc3c(F)cccc3F)c(F)c2)no1 [compound 253]     0.1 to 1 µg/mL
13  c1ccc(OCc2ccc(Cn3cc(-c4cccnc4)cn3)cc2)nc1 [compound 62]          > 1 µg/mL
14  Nc1ncccc1-c1cc(Cc2cnc(OCc3cccc(F)c3)c(F)c2)no1 [compound 251]     0.1 to 1 µg/mL
15  Nc1ncccc1-c1cc(Cc2ccc(OCC3CC3)nc2)no1 [compound 43]  0.01 to 0.1 µg/mL
16  Nc1ncccc1-c1cc(Cc2ccc(C(=O)c3ccccc3)cc2)no1 [compound 191]     0.1 to 1 µg/mL
17  Nc1ncccc1-c1cc(Cc2ccc(Cc3ccc(F)o3)cc2)no1 [compound 124]  0.01 to 0.1 µg/mL
18  COc1cc(F)cc(Cc2ccc(Cc3cc(-c4cccnc4N)on3)cc2)c1 [compound 216]     0.1 to 1 µg/mL
19  Nc1ncccc1-c1cc(Cc2ccc(COc3ccccc3F)cc2)no1 [Example 168]  0.01 to 0.1 µg/mL
20  Nc1ncccc1-c1cc(Cc2ccc(OCc3ccoc3)nc2)no1 [compound 48]  0.01 to 0.1 µg/mL
21  Nc1ncccc1-c1cc(Cc2ccc(OCCc3ccccc3)nc2)no1 [compound 78]  0.01 to 0.1 µg/mL
22  Nc1ncccc1-c1cc(Cc2ccc(Oc3ccc(F)cc3)nc2)no1 [Example 160]     0.1 to 1 µg/mL
23  Cc1cc(COc2ccc(Cc3cc(-c4cccnc4N)on3)cn2)no1 [compound 38]     0.1 to 1 µg/mL
24  Nc1ncccc1-c1cc(Cc2ccc(Cc3cccnc3F)cc2)no1 [compound 69]  0.01 to 0.1 µg/mL
25  Nc1ncccc1-c1cc(Cc2ccc(CCC3CCCCC3)cc2)no1 [compound 100]     0.1 to 1 µg/mL
26  Nc1ncccc1-c1cc(Cc2ccc(Oc3nc(Cl)cs3)cc2)no1 [compound 240]  0.01 to 0.1 µg/mL
27  Nc1ncccc1-c1cc(Cc2ccc(Nc3cc(F)cc(F)c3)nc2)no1 [compound 238]     0.1 to 1 µg/mL
28  Nc1ncccc1-c1cc(Cc2ccc(OCc3ccncc3F)nc2)no1 [compound 54]       ≤ 0.01 µg/mL
29  Nc1ncccc1-c1cc(Cc2ccc(CNc3cccc(F)c3F)cc2)no1 [compound 108]     0.1 to 1 µg/mL
30  Nc1ncccc1-c1cc(Cc2ccc(OCc3ncccn3)nc2)no1 [compound 46]     0.1 to 1 µg/mL
31  Nc1ncccc1-c1cc(Cc2ccc(OCCn3cccn3)nc2)no1 [Example 156]          > 1 µg/mL
32  Nc1ncccc1-c1cc(Cc2ccc(Oc3cc(F)cc(F)n3)cc2)no1 [compound 239]  0.01 to 0.1 µg/mL
33  Nc1ncccc1-c1cc(Cc2ccc(CCc3ccccc3)cc2)no1 [compound 18]     0.1 to 1 µg/mL
34  Nc1ncccc1-c1cc(Cc2ccc(Oc3ncc(Cl)cc3F)cc2)no1 [compound 236]     0.1 to 1 µg/mL
35  CCn1cc(Cc2ccc(Cc3cc(-c4cccnc4N)on3)cc2)cn1 [compound 12]     0.1 to 1 µg/mL
36  Nc1ncccc1-c1cc(Cc2ccc(Cn3cc(F)cn3)cc2)no1 [compound 4]     0.1 to 1 µg/mL
37  Nc1ncccc1-c1cc(Cc2ccc(Cc3ccnc(F)c3)cc2)no1 [compound 19]  0.01 to 0.1 µg/mL
